The reported numbers originate from patent US20240409530A1.

biological target: Rat recombinant KHK-C (Rattus norvegicus (Rat), UniProt Q02974); test: KHK inhibition assay, recombinant isozyme (coupled pyruvate kinase/LDH, NADH absorbance 340 nm); conditions: recombinant isozyme 6 nM, fructose 2 mM, ATP 0.1 mM
Sequence (Q02974 whole entry): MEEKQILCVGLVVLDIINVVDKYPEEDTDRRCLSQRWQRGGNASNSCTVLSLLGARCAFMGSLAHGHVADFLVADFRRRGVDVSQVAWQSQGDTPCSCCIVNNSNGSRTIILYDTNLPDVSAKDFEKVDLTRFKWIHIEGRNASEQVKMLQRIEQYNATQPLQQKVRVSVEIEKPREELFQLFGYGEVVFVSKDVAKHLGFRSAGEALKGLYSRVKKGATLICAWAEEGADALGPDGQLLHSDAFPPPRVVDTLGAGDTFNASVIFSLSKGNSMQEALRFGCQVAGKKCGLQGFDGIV
With a cut-off of 10 nM, any IC50 strictly below it is called class 1; any IC50 meeting it or above is called class 0.

Solved cases (5 shown):
O=C(Cn1cc(-c2cc(C(F)(F)F)nc(N3CC[C@@H]3C(F)F)n2)cn1)N1CCNCC1    class 0
C[C@H]1[C@H](O)CN1c1nc(-c2cnn(C3CN(C)C3)c2)cc(C(F)F)n1    class 0
Cc1c(-c2cnn(CC(=O)N3CCNCC3)c2)nc(N2CC[C@@H]2C)nc1C(F)F    class 0
COc1c(-c2cnn(CC(=O)N3CCNCC3)c2)nc(N2CC[C@@H]2C(F)(F)F)nc1C(F)(F)F    class 0
C[C@H]1CCN1c1nc(-c2cnn(CC(=O)N3CCNCC3)c2)c(Cl)c(C(F)(F)F)n1    class 1

Now, please, on to the next compound.
Q: Hello, is IC50 of the following compound strictly smaller than 10 nM? Cc1c(-c2cnn(CC(=O)N3CCNCC3)c2)nc(N2CC[C@@H]2C(F)F)nc1C(F)(F)F
A: class 0
